- System: cross-linking of glycated bovine serum albumin (AGE-BSA) to rat tail tendon collagen
- Protocol: Cross-linking Inhibition Assay
- Condition: inhibition of AGE-BSA cross-linking to collagen-coated plate
Assign labels as follows, please: YES for IC50 below 0.8 mM; NO for IC50 equal to or exceeding 0.8 mM.

Reference set (3 entries):
Cc1c(CCO)sc[n+]1CC(=O)c1ccccc1.[Br-] :: NO
CCN(CC)c1ccc(C(=O)C[n+]2csc(CCO)c2C)cc1 :: NO
Cc1c[n+](CC(N)=O)cs1 :: YES

Data request: Dear colleague, could you confirm whether IC50 of `Cc1csc[n+]1CC(N)=O.[Br-]` falls below 0.8 mM? Thanks.
Data returned: YES

Data request: For `COC(=O)C[n+]1csc2ccccc21.[Br-]` , is the recorded IC50 below the cut-off of 0.8 mM?
Data returned: NO

Data request: Is 0.8 mM strictly greater than the compound's reported IC50? compound: `Cc1sc[n+](CC(N)=O)c1C.[Br-]`
Data returned: NO
